We begin with a simple list: items and their reported IC50.
target: BACE1 (Homo sapiens, UniProt P56817); experiment: In Vitro Enzymatic BACE FRET (Fluorescence Resonance Energy Transfer) Assay; assay type: biochemical; conditions: Table III; IC50's in uM ranges; read-out: BACE1 FRET assay
Sequence (P56817 46-501, species assumed): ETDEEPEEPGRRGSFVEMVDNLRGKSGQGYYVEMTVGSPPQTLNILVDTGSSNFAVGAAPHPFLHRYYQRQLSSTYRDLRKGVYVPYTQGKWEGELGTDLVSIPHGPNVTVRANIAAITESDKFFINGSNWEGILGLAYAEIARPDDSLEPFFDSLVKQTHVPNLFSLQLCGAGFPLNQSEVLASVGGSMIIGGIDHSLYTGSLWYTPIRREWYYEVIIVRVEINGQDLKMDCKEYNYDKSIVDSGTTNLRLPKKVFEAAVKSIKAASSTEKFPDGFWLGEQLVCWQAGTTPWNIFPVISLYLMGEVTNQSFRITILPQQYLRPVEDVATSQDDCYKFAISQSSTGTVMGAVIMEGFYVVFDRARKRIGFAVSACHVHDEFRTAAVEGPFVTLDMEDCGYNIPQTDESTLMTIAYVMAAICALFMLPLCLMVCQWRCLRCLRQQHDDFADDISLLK
recorded endpoint: IC50

1) C=C(C)COc1ccc2c(c1)[C@]1(COC(N)=N1)c1cc(-c3cncnc3)ccc1O2 [compound 139]
< 0.1 µM
2) NC1=N[C@]2(CO1)c1cc(C#CC3CCCCC3)ccc1Oc1ccc(-c3cncnc3)cc12 [compound 138]
< 0.1 µM
3) COC(C)(C)C#Cc1ccc2c(c1)[C@@]1(COC(N)=N1)c1cc(-c3cccnc3)cnc1O2 [208a]
0.1 to 1 µM
4) CC(C)(O)C#Cc1ccc2c(c1)C1(COC(N)=N1)c1cc(C#CC(C)(C)O)ccc1O2 [compound 118]
1 to 5 µM
5) CC(C)(O)CCc1ccc2c(c1)[C@]1(COC(N)=N1)c1cc(-c3cccnc3)ccc1O2 [compound 193]
< 0.1 µM
6) NC1=N[C@]2(CO1)c1cc(C(=O)CC3CCCCC3)ccc1Oc1ccc(-c3cncnc3)cc12 [compound 141]
< 0.1 µM
7) CC(C)(C)C[C@@H](F)c1ccc2c(c1)[C@]1(COC(N)=N1)c1cc(-c3cncnc3)ccc1O2 [116b]
< 0.1 µM
8) CC1(COc2ccc3c(c2)[C@]2(COC(N)=N2)c2cc(-c4cncnc4)cnc2O3)COC1 [compound 166]
< 0.1 µM
9) Cc1noc(C)c1-c1ccc2c(c1)[C@]1(COC(N)=N1)c1cc(OCC(C)(C)C)ccc1O2 [compound 189]
0.1 to 1 µM
10) CC(C)(C)COc1ccc2c(c1)[C@]1(COC(N)=N1)c1cc(-c3ccnnc3)ccc1O2 [compound 145]
< 0.1 µM
11) CC(C)OCCOc1ccc2c(c1)[C@]1(COC(N)=N1)c1cc(-c3cncnc3)ccc1O2 [compound 180]
< 0.1 µM
12) CC(=O)c1cccc(-c2ccc3c(c2)[C@]2(COC(N)=N2)c2cc(OCC(C)(C)C)ccc2O3)c1 [compound 191]
< 0.1 µM
13) Cc1ccc(-c2ccc3c(c2)[C@]2(COC(N)=N2)c2cc(-c4cncnc4)ccc2O3)cc1 [compound 226]
< 0.1 µM
14) CC(C)(O)C#Cc1ccc2c(c1)C1(COC(N)=N1)c1cc(C#CC(C)(C)O)cnc1O2 (stereo not shown) [Example 114]
0.1 to 1 µM
15) CC(C)(C)CC(O)c1ccc2c(c1)[C@@]1(COC(N)=N1)c1cc(-c3ccc(F)nc3)ccc1O2 (stereo partly shown) [162b]
0.1 to 1 µM
16) NC1=NC2(CO1)c1cc(-c3cncnc3)ccc1Oc1ccc(-c3cncnc3)cc12 [compound 137]
< 0.1 µM
